All figures here come from patent US20220389007A1.

Catalogue of CC50 at 4 day values
Assay: Compound cytotoxicity, XTT-based colorimetric assay
Format: cell-based
Conditions: human; uninfected MT2 cells, day 4, XTT assay
metric_name: CC50 at 4 day

| compound | experimental_result |
| --- | --- |
| Cn1nc(NS(C)(=O)=O)c2c(Cl)ccc(-n3c([C@H](Cc4cc(F)cc(F)c4)NC(=O)Cn4nc(C(F)F)c5c4C(F)(F)[C@@H]4C[C@H]54)nc4nc(-c5cc(C(F)(F)F)[nH]n5)ccc4c3=O)c21 (atropisomer, axis not shown; (P)) [Example 90] | > 100 nM |
| Cn1nc(NS(C)(=O)=O)c2c(Cl)ccc(-n3c([C@H](Cc4cc(F)cc(F)c4)NC(=O)Cn4nc(C(F)F)c5c4C(F)(F)[C@@H]4C[C@H]54)nc4nc(-c5cc(C(F)(F)F)cc(C(F)(F)F)n5)ccc4c3=O)c21 (atropisomer, axis not shown; (P)) [Example 14] | > 100 nM |
